System tested: human recombinant ETB receptor (Homo sapiens, UniProt P24530)
Construct: expressed in transfected cells; host or cells: CHO cells (microsomal membranes)
Sequence (P24530 27-442): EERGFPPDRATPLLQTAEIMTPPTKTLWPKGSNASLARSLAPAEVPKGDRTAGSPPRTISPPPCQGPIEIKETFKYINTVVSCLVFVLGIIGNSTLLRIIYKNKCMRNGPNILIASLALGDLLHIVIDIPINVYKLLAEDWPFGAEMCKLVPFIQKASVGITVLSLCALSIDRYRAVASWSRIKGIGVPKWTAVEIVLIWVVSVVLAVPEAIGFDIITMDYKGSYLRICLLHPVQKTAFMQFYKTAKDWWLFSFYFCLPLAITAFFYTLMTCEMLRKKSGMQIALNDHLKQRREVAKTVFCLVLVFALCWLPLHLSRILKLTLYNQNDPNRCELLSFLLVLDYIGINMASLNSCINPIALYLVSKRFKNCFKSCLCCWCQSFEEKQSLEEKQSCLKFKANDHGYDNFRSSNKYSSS
Assay notes: Inhibition of [125I]ET-1 binding to membranes from CHO cells carrying human ETB receptors
// IC50 lookup, one value per entry
# output: bare number, implied unit µM

{"columns": ["Smiles string", "System tested", "Scale unit", "Value"],
 "data": [
  ["COc1ccccc1Oc1c(NS(=O)(=O)NCCc2ccccc2)nc(-c2ccncc2)nc1OCCOC(=O)Nc1ccccc1", "human recombinant ETB receptor (Homo sapiens, UniProt P24530)", "µM", 0.224],
  ["COc1cnc(OCCOc2nc(-c3ncccn3)nc(NS(=O)(=O)NCC3CC3)c2Oc2ccccc2OC)nc1", "human recombinant ETB receptor (Homo sapiens, UniProt P24530)", "µM", 0.087],
  ["COc1ccccc1Oc1c(NS(=O)(=O)NCc2cccs2)nc(-c2ccncc2)nc1OCCOC(=O)Nc1ccccn1", "human recombinant ETB receptor (Homo sapiens, UniProt P24530)", "µM", 0.274]
]}

(Q) Entry under review: "COc1ccc(Cl)c(Oc2c(NS(=O)(=O)NCc3ccc4c(c3)OCO4)ncnc2OCCOc2ncc(Br)cn2)c1" . Reported IC50?
(A) 0.057

(Q) Another compound to look at: "COc1cnc(OCCOc2nc(-c3ncccn3)nc(NS(=O)(=O)NCc3ccc(Cl)cc3)c2Oc2ccccc2OC)nc1"
(A) 0.08

(Q) What do we get for "CCNS(=O)(=O)Nc1ncnc(OCCOc2ncc(SC)cn2)c1-c1ccc(Cl)cc1" ?
(A) 0.567

----------
System tested: human recombinant ETA receptor (Homo sapiens, UniProt P25101)
Assay notes: Inhibition of [125I]ET-1 binding to membranes from CHO cells carrying human ETA receptors
Recorded metric: IC50 (nM)
Reply with just the number (in nM).

(Q) Lookup: IC50 / human recombinant ETA receptor (Homo sapiens, UniProt P25101) / "O=S(=O)(NCc1cccs1)Nc1ncnc(OCCOc2ccc(C(F)(F)F)cn2)c1-c1ccc(Cl)cc1"
(A) 12

----------
System tested: ETA receptors (rat aortic rings) (Rattus norvegicus, UniProt P26684)
Construct: The thoracic aorta or trachea were excised, dissected and cut in 3–5 mm rings; from tissue; host or cells: thoracic aorta rings of adult Wistar rats, endothelium removed
Sequence (P26684 21-426): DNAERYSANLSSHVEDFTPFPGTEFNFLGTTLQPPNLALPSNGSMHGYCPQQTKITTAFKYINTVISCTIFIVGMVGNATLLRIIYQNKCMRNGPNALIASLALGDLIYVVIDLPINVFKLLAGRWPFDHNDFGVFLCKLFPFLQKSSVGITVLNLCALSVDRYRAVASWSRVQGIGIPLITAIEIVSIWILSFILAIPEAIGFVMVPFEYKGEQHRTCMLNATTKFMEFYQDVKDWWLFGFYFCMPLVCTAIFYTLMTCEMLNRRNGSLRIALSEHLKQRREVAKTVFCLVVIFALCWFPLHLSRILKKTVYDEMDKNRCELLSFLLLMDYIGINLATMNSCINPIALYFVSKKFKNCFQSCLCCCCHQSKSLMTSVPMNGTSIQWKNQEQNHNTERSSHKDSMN
Assay notes: Inhibition of endothelin-1-induced contraction on isolated rat aortic rings
Conditions: read-out: pA2 value ETA (converted)
Recorded metric: log10 of Kb (log10 of the value in nM)
Response schema: value (number) is log10 of Kb in units of nM.

{"columns": ["Smiles string", "Value"],
 "data": [
  ["COc1ccccc1Oc1c(NS(=O)(=O)NCc2ccccc2)nc(SC)nc1OCCO", 1.31],
  ["O=S(=O)(NCc1ccccn1)Nc1ncnc(OCCOc2ncc(Br)cn2)c1-c1ccc(Cl)cc1", 0.85],
  ["O=S(=O)(NCc1ccccc1)Nc1ncnc(OCCOc2ncc(Br)cn2)c1-c1ccc(Br)cc1", 0.56],
  ["COc1ccc(CNS(=O)(=O)Nc2nc(-c3ncccn3)nc(OC)c2Oc2ccccc2OC)cc1", 2.45],
  ["O=S(=O)(NCc1ccccc1)Nc1ncnc(OCCOc2ncc(Br)cn2)c1-c1ccc(Cl)cc1", 0.60]
]}

(Q) // lookup log10 of Kb | system=ETA receptors (rat aortic rings) (Rattus norvegicus, UniProt P26684) | key= "Cc1ccc(-c2c(NS(=O)(=O)NCc3ccccc3)nc(-c3ccncc3)nc2OCCOc2ncc(Br)cn2)cc1"
(A) 0.25

(Q) Similarly, "COc1ccccc1Oc1c(NS(=O)(=O)NCc2ccccc2)nc(-c2ncccn2)nc1OCCOc1ncc(Br)cn1" ?
(A) 1.17

(Q) Same question, "COc1ccccc1Oc1c(NS(=O)(=O)Nc2ccc(C(C)C)cc2)nc(-c2ccncc2)nc1OCCOc1ncc(Br)cn1" this time
(A) 2.35

----------
System tested: human recombinant ETB receptor (Homo sapiens, UniProt P24530)
Sequence (P24530 27-442): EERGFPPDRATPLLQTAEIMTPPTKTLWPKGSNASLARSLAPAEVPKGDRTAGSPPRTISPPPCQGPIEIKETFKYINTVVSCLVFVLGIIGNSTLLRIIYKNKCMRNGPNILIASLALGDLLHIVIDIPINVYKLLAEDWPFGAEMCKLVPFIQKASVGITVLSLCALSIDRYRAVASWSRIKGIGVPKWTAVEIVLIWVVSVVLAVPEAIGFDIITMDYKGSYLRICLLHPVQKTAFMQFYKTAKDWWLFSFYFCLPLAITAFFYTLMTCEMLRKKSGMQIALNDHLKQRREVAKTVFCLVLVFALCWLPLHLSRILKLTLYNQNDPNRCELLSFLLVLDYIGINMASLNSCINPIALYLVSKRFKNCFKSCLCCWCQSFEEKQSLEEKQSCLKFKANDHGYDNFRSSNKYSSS
Assay notes: Inhibition of [125I]ET-1 binding to membranes from CHO cells carrying human ETB receptors
Recorded metric: pIC50
# reply with the number alone; pIC50 is -log10 of concentration in mol/L

Examples with their reported pIC50 follow.
{"columns": ["Smiles string", "pIC50"],
 "data": [
  ["COc1ccccc1Oc1c(NS(=O)(=O)NCc2ccc3c(c2)OCO3)nc(-c2ccncc2)nc1OC", 5.88],
  ["COc1ccccc1Oc1c(NS(=O)(=O)NCc2ccccc2)nc(N2CCOCC2)nc1OCCO", 6.21],
  ["COc1cnc(OCCOc2ncnc(NS(=O)(=O)NCc3ccco3)c2-c2ccc(Cl)cc2)nc1", 5.80],
  ["O=S(=O)(NCC1CC1)Nc1ncnc(OCCOc2ncc(Br)cn2)c1-c1ccc(Br)cc1", 7.02],
  ["CSc1cnc(OCCOc2nc(-c3ccncc3)nc(NS(=O)(=O)NCc3ccccc3)c2-c2ccc(C)cc2)nc1", 6.22],
  ["C#CCOc1nc(-c2ccnc(-c3nnn[nH]3)c2)nc(NS(=O)(=O)NCc2ccccc2)c1Oc1ccccc1OC", 6.03]
]}

Now for another entry.
(Q) pIC50 for "COc1cnc(OCCOc2nc(-c3ncccn3)nc(NS(=O)(=O)NCC3CCCCC3)c2Oc2ccccc2OC)nc1" ?
(A) 6.73

----------
System tested: human recombinant ETA receptor (Homo sapiens)
Sequence (P25101 21-427): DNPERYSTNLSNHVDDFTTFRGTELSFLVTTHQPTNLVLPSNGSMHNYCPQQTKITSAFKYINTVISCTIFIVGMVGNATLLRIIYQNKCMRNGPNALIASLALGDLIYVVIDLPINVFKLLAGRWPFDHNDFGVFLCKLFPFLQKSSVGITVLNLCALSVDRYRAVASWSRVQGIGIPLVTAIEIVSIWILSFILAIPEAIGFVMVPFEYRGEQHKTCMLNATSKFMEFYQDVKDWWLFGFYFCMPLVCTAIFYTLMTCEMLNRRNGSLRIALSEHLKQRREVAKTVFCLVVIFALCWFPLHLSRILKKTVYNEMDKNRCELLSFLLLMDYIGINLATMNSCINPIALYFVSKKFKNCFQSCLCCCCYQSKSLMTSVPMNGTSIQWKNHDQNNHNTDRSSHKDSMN
Assay notes: Inhibition of [125I]ET-1 binding to membranes from CHO cells carrying human ETA receptors
Each entry below carries its reported pIC50.
Would you please state pIC50, meaning minus log10 of the concentration in mol/L, as a bare number?

Look over these answered cases.
{"columns": ["Compound", "pIC50"],
 "data": [
  ["COc1cnc(OCCOc2ncnc(NS(=O)(=O)NCc3ccc4c(c3)OCO4)c2Oc2cc(OC)ccc2Cl)nc1 [Example 152]", 8.96],
  ["COc1ccccc1Oc1c(NS(=O)(=O)NCCc2ccccc2)nc(-c2ccncc2)nc1OCCOc1ncc(Br)cn1 [Example 182]", 7.54],
  ["COc1ccccc1CNS(=O)(=O)Nc1nc(-c2ncccn2)nc(OCCOc2ncc(Br)cn2)c1Oc1ccccc1OC [Example 174]", 8.43],
  ["O=S(=O)(NCc1ccco1)Nc1ncnc(OCCOc2ncc(Br)cn2)c1-c1ccc(Cl)cc1 [Example 24]", 8.66],
  ["COc1cnc(OCCOc2nc(-c3ccncc3)nc(NS(=O)(=O)NCC3CCCCC3)c2Oc2ccccc2OC)nc1 [Example 131]", 8.49]
]}

(Q) Suppose we examine the compound COc1ccc(CNS(=O)(=O)Nc2nc(-c3ncccn3)nc(OC)c2Oc2ccccc2OC)cc1 [Example 51] ; what pIC50 value has been reported?
(A) 7.87

(Q) What about COc1ccccc1Oc1c(NS(=O)(=O)Nc2ccccn2)nc(-c2ccncc2)nc1OC [Example 9] ?
(A) 5.44

(Q) Can you check Cc1ccc(-c2c(NS(=O)(=O)NCc3ccccc3)nc(-c3ccncc3)nc2OCCOC(=O)Nc2ccccn2)cc1 [Example 34] next?
(A) 7.64
